Target: Tyrosine-protein phosphatase non-receptor type 2 (Homo sapiens)
Sequence (P17706 whole entry): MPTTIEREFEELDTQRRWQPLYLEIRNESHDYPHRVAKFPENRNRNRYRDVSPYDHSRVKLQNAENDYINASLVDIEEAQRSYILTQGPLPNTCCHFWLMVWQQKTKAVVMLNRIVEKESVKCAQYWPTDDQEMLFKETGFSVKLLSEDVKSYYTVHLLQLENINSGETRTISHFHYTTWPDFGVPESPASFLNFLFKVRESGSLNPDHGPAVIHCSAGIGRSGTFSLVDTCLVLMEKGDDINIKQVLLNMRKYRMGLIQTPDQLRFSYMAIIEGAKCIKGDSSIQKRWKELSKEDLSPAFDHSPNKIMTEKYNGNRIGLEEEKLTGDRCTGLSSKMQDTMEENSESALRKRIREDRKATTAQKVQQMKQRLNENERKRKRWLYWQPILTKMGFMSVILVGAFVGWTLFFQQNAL
Experiment: Inhibition of recombinant human TCPTP using pNPP as substrate measured after 30 mins
Some compounds, each annotated with its measured IC50.

compound	result.modifier	IC50 (nM)
O=C(O)C1=CO[C@@H](O[C@@H]2O[C@H](COCc3ccccc3)[C@@H](OCc3ccccc3)[C@H](OCc3ccccc3)[C@H]2OCc2ccccc2)[C@@H]2C(COCc3ccccc3)=CC[C@H]12	=	1320
COC(=O)C1=CO[C@@H](O[C@@H]2O[C@H](CO)[C@@H](O)[C@H](O)[C@H]2O)[C@@H]2C(CO)=CC[C@H]12 [GENIPOSIDE]	>	500000
COC(=O)C1=CO[C@@H](O)[C@@H]2C(CO)=CC[C@H]12	>	500000
O=C1C[C@@H](O[C@@H]2O[C@H](CO)[C@@H](O)[C@H](O)[C@H]2O)CO1	>	50000
CCOS(=O)(=O)/C=C/c1ccc(OCC2=CC[C@@H]3C(C(=O)Nc4ccc(Oc5ccc(Br)cc5Cl)cc4)=CO[C@@H](OCc4ccccc4)[C@H]23)cc1	=	1290

Just for reference, ChEMBL document CHEMBL4765409 is where these values come from.
